B1: LINE1-full (parent)
chain: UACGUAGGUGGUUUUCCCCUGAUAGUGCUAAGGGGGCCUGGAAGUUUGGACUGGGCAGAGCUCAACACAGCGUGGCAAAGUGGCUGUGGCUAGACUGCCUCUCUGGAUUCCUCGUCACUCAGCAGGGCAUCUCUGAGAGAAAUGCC

Variants of: B1
Test: self-cleavage, relative activity (ratio to wild type); higher = more cleavage; in vitro, sequencing; the parent is a self-cleaving ribozyme
Assign condition met to entries whose self-cleavage meets or exceeds 1; assign condition not met to the rest.

Reference set, count: 5
>>> print(df.to_string())
   mutant_label     discrete_label
0    A42G U112A      condition met
1    U39C U109A      condition met
2     A57U G88A  condition not met
3    U23C U109C      condition met
4    A30G U143A  condition not met

# next variant below
Dear colleague, could you confirm whether U62C U91A has self-cleavage at or above 1? condition not met
